Target: T1, cJun bZIP (human, UniProt P05412 252-308, limits assumed)
T1 construct: Purified from a His-SUMO fusion with the tag cleaved off; also called c-Jun bZIP domain; 60 amino acid c-Jun bZIP construct
T1 chain: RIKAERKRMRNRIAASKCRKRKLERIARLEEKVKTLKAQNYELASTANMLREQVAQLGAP
Test: ITC (PEAQ-ITC), peptide injected into cJun, one site model
For each entry below, report its Kd value.
Reply with the number and its unit after it.

binder | Kd
Ac-EAEELVVEEDVLEEEIEQLEERNYALRKEIEDLQKQ-NH2 (Synthetic, NΔ20 CΔ7) [HingeW variant peptide 11] | 1100 nM

Here is another binder to look at.
INPUT: // lookup Kd for Ac-EAEELVVEEDVLEEEIEQLEERNYALRKEIEDLQKQLEKL-NH2 (Synthetic, NΔ20 CΔ3) [HingeW variant peptide 4]
OUTPUT: 91.1 nM
